test: qHTS for ATAD5 Antagonist screened against the NCATS CANVASS Library (AID 1347370); details: HEK293T-ATAD5-luc, 5-FUrd stimulated, luminescence, 16 h; series mostly up to 46.1 µM; further: nearly all actives have a fitted effect of over 65% in size
Inconclusive results are not listed. Activity calls are given as the source filed them. The call rests on the fitted dose curve; in most records, active means well fitted inhibition curve with a large enough effect; inconclusive means small, poorly fitted or top-dose-only effect; inactive means no such curve, though single readings can be large or run the other way.
The categories you may choose from are class 1 (active), class 0 (inactive)

Take a look at these entries with their results.
COC12OC1(C13OC1(OC)C(=O)c1cc4cc(C)oc(=O)c4c(O)c1C3O)C(O)c1c(cc3cc(C)oc(=O)c3c1O)C2=O (stereo not given); class 0
CCC(=O)N[C@@H](C[C@H](C)C(Cl)(Cl)Cl)C(=O)N1C(=O)C=C(OC)[C@@H]1C[C@H](C)CCl; class 0
C=CC(CCCCC)C1C(=O)NC(=O)C1C(=O)C1C2C(C)CC(C(=O)O)CC2CC1(O)C(=O)/C=C/C (stereo not given); class 0
COC(=O)c1cc2cc3c(c(O)c2c(=O)o1)OC1(CC3)CC2=C(O1)C(=O)c1c(O)c(OC)cc(OC)c1C2=O (stereo not given); class 0

IN: So what was the verdict on C/C=C1/CN2C3CC1C1C=CC(=O)N4c5ccccc5[C@@]3(C[C@@H]2C2=C[C@H]3C5CC6N(CC[C@@]67c6ccccc6N(C2=O)[C@@H]37)C/C5=C/C)[C@H]14 (stereo not given in full) in this test?
OUT: class 1
